Values compiled from the supplement of paper PMC10567573.

B1: VTI1B (parent)
chain: ANETLAEMEEELRYAPLSFRNPMM

variants of: B1; experiment: protein stability index of a GFP-peptide fusion (GPS, HEK-293T) (PSI 1-6); higher = more stable; details: c terminus: a fixed tail appended;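 also: lentivirally expressed fusions sorted by FACS into six bins by GFP to DsRed ratio, PSI derived from sequencing read proportions per bin multiplied by bin number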
quantity_measured: protein stability index

R20T : 2.42
E9S : 2.78
L17Y : 3.41
M23A : 2.71

Query string: Suppose we examine the variant `L5I` ; what protein stability index value has been reported?
Result string: 2.16

Query string: Suppose we examine the variant `M24D` ; what protein stability index value has been reported?
Result string: 3.92

Query string: Suppose we examine the variant `L12E` ; what protein stability index value has been reported?
Result string: 3.65

Query string: Suppose we examine the variant `A6H` ; what protein stability index value has been reported?
Result string: 2.4

Query string: Suppose we examine the variant `E7K` ; what protein stability index value has been reported?
Result string: 2.52

Query string: Suppose we examine the variant `P16H` ; what protein stability index value has been reported?
Result string: 2.64

Query string: Suppose we examine the variant `T4V` ; what protein stability index value has been reported?
Result string: 1.9

Query string: Suppose we examine the variant `A15K` ; what protein stability index value has been reported?
Result string: 3.09

Query string: Suppose we examine the variant `P22Q` ; what protein stability index value has been reported?
Result string: 4.11

Query string: Suppose we examine the variant `R20Q` ; what protein stability index value has been reported?
Result string: 1.72

Query string: Suppose we examine the variant `M24W` ; what protein stability index value has been reported?
Result string: 3.97

Query string: Suppose we examine the variant `P16S` ; what protein stability index value has been reported?
Result string: 2.92

Query string: Suppose we examine the variant `E7H` ; what protein stability index value has been reported?
Result string: 2.2

Query string: Suppose we examine the variant `A6C` ; what protein stability index value has been reported?
Result string: 2.12

Query string: Suppose we examine the variant `L12S` ; what protein stability index value has been reported?
Result string: 4.33

Query string: Suppose we examine the variant `T4F` ; what protein stability index value has been reported?
Result string: 2.12

Query string: Suppose we examine the variant `E3H` ; what protein stability index value has been reported?
Result string: 2.43

Query string: Suppose we examine the variant `N21M` ; what protein stability index value has been reported?
Result string: 3.37
